The reported numbers originate from the supplement of paper PMC3334620.

What PBM E-score was measured for each of the following?
molecular target: Hap1 (UniProt P0CE41); assay: PBM E-score (8-mer binding enrichment) (E-score (-0.5 to 0.5)); higher = stronger / more preferred TF binding; conditions: protein concentration: 200 nM; construct: GST-DNA-binding domain
Sequence (P0CE41 whole entry, the tested form may be a part): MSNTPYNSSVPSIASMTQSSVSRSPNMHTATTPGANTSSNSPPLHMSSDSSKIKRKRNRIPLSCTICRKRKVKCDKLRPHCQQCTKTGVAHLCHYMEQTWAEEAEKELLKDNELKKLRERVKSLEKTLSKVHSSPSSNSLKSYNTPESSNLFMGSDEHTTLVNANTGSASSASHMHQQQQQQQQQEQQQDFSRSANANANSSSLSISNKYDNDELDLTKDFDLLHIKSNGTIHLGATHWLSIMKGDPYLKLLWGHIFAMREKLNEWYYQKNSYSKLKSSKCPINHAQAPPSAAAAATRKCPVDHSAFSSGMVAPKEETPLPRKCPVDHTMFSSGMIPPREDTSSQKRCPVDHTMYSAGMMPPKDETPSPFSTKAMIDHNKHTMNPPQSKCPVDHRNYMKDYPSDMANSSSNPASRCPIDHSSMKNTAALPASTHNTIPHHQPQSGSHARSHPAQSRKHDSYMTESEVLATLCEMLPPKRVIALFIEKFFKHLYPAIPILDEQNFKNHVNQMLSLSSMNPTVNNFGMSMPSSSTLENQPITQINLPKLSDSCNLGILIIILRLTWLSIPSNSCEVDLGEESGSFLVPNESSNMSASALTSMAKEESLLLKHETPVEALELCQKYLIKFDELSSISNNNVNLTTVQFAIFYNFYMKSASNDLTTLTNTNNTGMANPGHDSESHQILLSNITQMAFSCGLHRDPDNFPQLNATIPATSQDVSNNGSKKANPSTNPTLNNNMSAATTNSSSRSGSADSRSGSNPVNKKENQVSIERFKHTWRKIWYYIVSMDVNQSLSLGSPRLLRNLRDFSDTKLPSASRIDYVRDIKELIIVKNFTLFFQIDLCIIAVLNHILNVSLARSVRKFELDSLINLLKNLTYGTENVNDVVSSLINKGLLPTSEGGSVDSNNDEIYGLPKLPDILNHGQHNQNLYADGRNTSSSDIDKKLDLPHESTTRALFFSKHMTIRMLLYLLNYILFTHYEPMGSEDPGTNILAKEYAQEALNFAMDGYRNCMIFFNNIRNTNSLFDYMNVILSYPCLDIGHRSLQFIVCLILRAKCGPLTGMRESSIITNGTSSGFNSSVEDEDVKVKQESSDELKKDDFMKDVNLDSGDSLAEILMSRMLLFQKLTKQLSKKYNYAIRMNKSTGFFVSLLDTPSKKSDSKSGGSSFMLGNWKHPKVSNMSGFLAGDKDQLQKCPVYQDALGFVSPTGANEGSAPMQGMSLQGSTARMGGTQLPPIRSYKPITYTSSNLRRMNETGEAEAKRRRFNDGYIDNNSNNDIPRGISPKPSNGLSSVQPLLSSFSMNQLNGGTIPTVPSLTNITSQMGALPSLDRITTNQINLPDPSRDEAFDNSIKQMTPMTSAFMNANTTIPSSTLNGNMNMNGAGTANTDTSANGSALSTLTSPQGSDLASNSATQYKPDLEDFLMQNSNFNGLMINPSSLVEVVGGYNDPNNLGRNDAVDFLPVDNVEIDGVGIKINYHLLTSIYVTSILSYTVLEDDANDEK
Whole data set: some 33,000 sequences, median “E-score (-0.5 to 0.5)” near -0.053, cut for the highest 2% near 0.37. The full list was thinned out, with the highest values kept by preference.
A bare number is all that is needed in reply.

Exercise: Consider the sequence `ATGTCCGA` and give its measured PBM E-score.
Key: 0.463

Exercise: Consider the sequence `CCGGACAG` and give its measured PBM E-score.
Key: 0.382

Exercise: Consider the sequence `TCGGACAA` and give its measured PBM E-score.
Key: 0.394

Exercise: Consider the sequence `GTGTCCGA` and give its measured PBM E-score.
Key: 0.339

Exercise: Consider the sequence `ATGTCCTG` and give its measured PBM E-score.
Key: 0.00518

Exercise: Consider the sequence `CCGGACAA` and give its measured PBM E-score.
Key: 0.414

Exercise: Consider the sequence `CTGTCCGC` and give its measured PBM E-score.
Key: 0.113

Exercise: Consider the sequence `CGCTTTGA` and give its measured PBM E-score.
Key: 0.0268

Exercise: Consider the sequence `ACGGACAA` and give its measured PBM E-score.
Key: 0.335

Exercise: Consider the sequence `GCGGACAA` and give its measured PBM E-score.
Key: 0.304

Exercise: Consider the sequence `CAGGACAG` and give its measured PBM E-score.
Key: -0.195

---

What PBM E-score was measured for each of the following?
target: Hap1 (UniProt P0CE41); experiment: PBM E-score (8-mer binding enrichment) (E-score (-0.5 to 0.5)); higher = stronger / more preferred TF binding; conditions: protein concentration: 200 nM; construct: GST-DNA-binding domain
Whole data set: some 33,000 sequences, median “E-score (-0.5 to 0.5)” near -0.053, cut for the highest 2% near 0.37. The sample as a whole holds a higher share of the highest values than the screen did.
A bare number is all that is needed in reply.

Exercise: Consider the sequence `AGGGCTTA` and give its measured PBM E-score.
Key: -0.203

Exercise: Consider the sequence `ATATCCGC` and give its measured PBM E-score.
Key: 0.387

Exercise: Consider the sequence `GCAAGAGC` and give its measured PBM E-score.
Key: -0.151

Exercise: Consider the sequence `AGCCCGAA` and give its measured PBM E-score.
Key: 0.3

Exercise: Consider the sequence `TATTCGGA` and give its measured PBM E-score.
Key: 0.37

Exercise: Consider the sequence `AGATCCGG` and give its measured PBM E-score.
Key: 0.384

Exercise: Consider the sequence `AGATCCGC` and give its measured PBM E-score.
Key: 0.263

Exercise: Consider the sequence `ATATCCTC` and give its measured PBM E-score.
Key: 0.0211

Exercise: Consider the sequence `GGCCCGAA` and give its measured PBM E-score.
Key: 0.384

Exercise: Consider the sequence `GGCCCGTA` and give its measured PBM E-score.
Key: 0.281

Exercise: Consider the sequence `CGGGCTTA` and give its measured PBM E-score.
Key: 0.437

Exercise: Consider the sequence `ATATCCGG` and give its measured PBM E-score.
Key: 0.452

Exercise: Consider the sequence `ATATCCGA` and give its measured PBM E-score.
Key: 0.463

Exercise: Consider the sequence `ATATCCCG` and give its measured PBM E-score.
Key: 0.286

Exercise: Consider the sequence `AGGGCATA` and give its measured PBM E-score.
Key: -0.102

Exercise: Consider the sequence `AATTCGGC` and give its measured PBM E-score.
Key: 0.131

Exercise: Consider the sequence `GCCCCGGC` and give its measured PBM E-score.
Key: 0.25

Exercise: Consider the sequence `ATATCCAG` and give its measured PBM E-score.
Key: 0.0668

Exercise: Consider the sequence `AGCGCGGA` and give its measured PBM E-score.
Key: 0.223

Exercise: Consider the sequence `GCCCCGGA` and give its measured PBM E-score.
Key: 0.391

Exercise: Consider the sequence `GGCCCGCA` and give its measured PBM E-score.
Key: 0.157

Exercise: Consider the sequence `CTATCCGA` and give its measured PBM E-score.
Key: 0.113
